Provide the recorded inhibition for the entries that follow.
TEST_METHOD_NOTES: inhibitors of the yeast RAM network, pilot screen, dse1pr::URA3 reporter, 5-FOA selection (AID 869);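 further: 0% = DMSO wells with no growth and 100% = 10 µM 1-NA-PP1 with full growth; RAM network block rescues cells from 5-FOA so hits raise OD615 growth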
CONDITION_DETAILS: S. cerevisiae dse1pr::URA3 5-FOA growth, OD615, 2 d; at 10 µM; hits give high values; strain carries analog-sensitive mutant Cbk1 kinase
Calls of active or inactive are those of the source.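 How the source made its calls: active means inhibition over a set limit, the all-compound mean plus 3 SD, in both replicate runs; inconclusive means over that limit in just one replicate run; inactive means at or under that limit in both runs.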

- COMPOUND: "CCN(CC(=O)NCc1ccc(F)cc1)C(=O)C1CCN(C(=O)Nc2ccccc2)CC1"
  ENDPOINT: "inhibition"
  RESULT: "1.25% (inactive)"
- COMPOUND: "Cc1ccc(CCNC(=O)C2CCCN(S(=O)(=O)c3c(C)noc3/C=C/N(C)C)C2)cc1 (centres undefined)"
  ENDPOINT: "inhibition"
  RESULT: "1.85% (inactive)"
- COMPOUND: "O=C1c2ccccc2CCC1C(O)c1ccccn1 (centres undefined)"
  ENDPOINT: "inhibition"
  RESULT: "2.49% (inactive)"

Required: inhibition, one value per compound below.
1. CCOC(=O)c1c(C)n(C)c2ccc(OCC(O)CN3CCC(C)CC3)cc12 (centres undefined)
2. O=C1CCc2cc(S(=O)(=O)NC(Cc3ccccc3)C(=O)NC3CCCC3)ccc2N1 (centres undefined)
3. CC(=O)Nc1nonc1-c1nc2ccccc2n1Cc1nnc(C)o1
4. COCC(C)NC(=O)c1cc(-c2ccc(O)cc2)on1 (centres undefined)

0.415% (inactive)
1.86% (inactive)
2.09% (inactive)
2.48% (inactive)

Required: inhibition, one value per compound below.
1. O=C(CCN1C(=O)c2ccccc2C1=O)OCn1nnc2ccccc2c1=O
2. Cc1sc2nc(SC(C)C)nc(N)c2c1C
3. COc1ccc2nc(SCc3nc(N)nc(Nc4ccccc4)n3)[nH]c2c1
4. CCOC(=O)C1=C(C)N=c2s/c(=C\C(=O)OC)c(=O)n2C1c1ccc(OC)cc1 (centres undefined)
5. COc1ccc(S(=O)(=O)N2CCC(C(=O)N3CCc4ccccc4C3)CC2)cc1OC

1. 4.12% (inactive)
2. 1.69% (inactive)
3. 0.72% (inactive)
4. 1.73% (inactive)
5. -0.455% (inactive)

Required: inhibition, one value per compound below.
1. C=CCNc1nc2c(c(=O)n(C)c(=O)n2C)n1Cc1ccc(F)cc1
2. NC(=O)CC1NC(=O)c2ccccc21 (centres undefined)
3. CCOC(=O)c1c(C)[nH]c(C(=O)CSc2nnnn2-c2ccccc2)c1C
4. Cc1cc(NC(=O)Nc2cccc3ccccc23)no1
5. CC(=O)Nc1nnc(SCc2cccc(F)c2)s1
6. COc1cc(NC(=O)c2cc(-c3cccc(O)c3)on2)cc(OC)c1OC
7. O=S(=O)(NCc1cccnc1)c1ccc(Cl)c(Cl)c1

1. 0.835% (inactive)
2. 1.28% (inactive)
3. 2.31% (inactive)
4. -0.175% (inactive)
5. 1.99% (inactive)
6. 4.79% (inactive)
7. 0.75% (inactive)

---

TEST_METHOD_NOTES: Restrictive medium S. cerevisiae growth inhibition, OD615, pilot screen of yeast lifespan reduction project, restrictive growth control (AID 706);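 further: modified DeaD lifespan yeast strain shifted to restrictive glucose medium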
CONDITION_DETAILS: OD615, 48 h, at 10 µM, hits give high values
ENDPOINT: growth inhibition (%)
Numbers only, in %.

// solved cases for growth inhibition follow
- MOLECULE: "O=C(O)c1c(F)c(F)c(F)c(F)c1-c1ccc(Cl)cc1"
  QUANTITY_UNIT: "%"
  NUMERIC_RESULT: -19.6
- MOLECULE: "COc1ccc(C(C#N)(CCC#N)CCC#N)cc1OC"
  QUANTITY_UNIT: "%"
  NUMERIC_RESULT: -4.89
- MOLECULE: "COC(=O)C1C2C=CC3(CN(c4ccc(Cl)c(F)c4)C(=O)C13)O2 (stereo not given)"
  QUANTITY_UNIT: "%"
  NUMERIC_RESULT: 0.405
- MOLECULE: "Fc1ccc(OCc2nc(-c3ccc(Br)o3)no2)c(F)c1"
  QUANTITY_UNIT: "%"
  NUMERIC_RESULT: -12.8
- MOLECULE: "O=C(c1ccccc1)N1CCn2c(nc3ccccc32)C1"
  QUANTITY_UNIT: "%"
  NUMERIC_RESULT: 2.58

Required: growth inhibition, one value per molecule below.
1. CCNC(=O)Cc1ccc(NS(=O)(=O)c2ccc(F)cc2)cc1
2. O=C(c1ccc2nc(N3CCOCC3)sc2c1)N1CCN(C(=O)c2ccco2)CC1
3. Cc1ccc(CNC(=O)CS(=O)Cc2nc(-c3cccs3)oc2C)cc1 (stereo not given)

1: 13.8; 2: 2.97; 3: 57.4

Required: growth inhibition, one value per molecule below.
1. O=C(O)c1ccc(-n2cccc2)cc1O
2. Cc1cc2cc(CNS(=O)(=O)c3ccccc3)ccc2n1C
3. Cc1cc(C(=O)NCc2ccccc2)c(=O)[nH]c1C
4. CCCCOc1ccccc1C1C(C(=O)OC)=CN(CC)C=C1C(=O)OC

-13.1
3.34
-9.45
0.595

Required: growth inhibition, one value per molecule below.
1. COC(=O)C1=C(C)n2cnnc2NC1c1ccc(Cl)cc1 (stereo not given)
2. O=C(NCCN1CCCCCC1)C1CCC(CNS(=O)(=O)c2cccc3cccnc23)CC1 (stereo not given)
3. NC(=O)C1CCN(C(=O)c2ccc(CS(=O)(=O)c3c(Cl)cccc3Cl)o2)CC1

-4.44
-3.45
-0.415

Origin of the recorded values: PubChem BioAssay
